Target System: NS3 protease (Hepatitis C virus subtype 1b, UniProt Q0ZMF1, D168Y)
Experiment Summary: Inhibition of Hepatitis C virus genotype 1b NS3/4A protease D168Y mutant assessed as substrate cleavage using Ac-C(Eu)DDMEEAbu(COO)ASK(QSY7)-amide as substrate incubated for 30 mins prior to substrate addition by time-resolved fluorescence assay
Some compounds, each annotated with its measured pIC50.
Please report pIC50 as the negative decimal logarithm of the molar concentration, giving only the number.

Recorded results for 7 compounds are shown here.
{"Compound": "C=C[C@@H]1C[C@]1(NC(=O)[C@@H]1C[C@@H]2CN1C(=O)[C@H](C1CCCCC1)NC(=O)O[C@@H]1C[C@H]1CCCCCc1c(nc3ccccc3c1OCCCN1CC(F)(F)C1)O2)C(=O)NS(=O)(=O)C1(C)CC1", "pIC50": 8.70}
{"Compound": "C=C[C@@H]1C[C@]1(NC(=O)[C@@H]1C[C@@H]2CN1C(=O)[C@H](C(C)(C)C)NC(=O)O[C@@H]1C[C@H]1CCCCCc1nc3ccc(OC)cc3nc1O2)C(=O)NS(=O)(=O)C1CC1 [GRAZOPREVIR ANHYDROUS]", "pIC50": 9.85}
{"Compound": "C=C[C@@H]1C[C@]1(NC(=O)[C@@H]1C[C@@H]2CN1C(=O)[C@H](C1CCCCC1)NC(=O)O[C@@H]1C[C@H]1CCCCCc1c(nc3ccccc3c1OC1CCN(CCOC(F)(F)F)CC1)O2)C(=O)NS(=O)(=O)C1(C)CC1", "pIC50": 9.32}
{"Compound": "C=C[C@@H]1C[C@]1(NC(=O)[C@@H]1C[C@@H]2CN1C(=O)[C@H](C1CCCCC1)NC(=O)O[C@@H]1C[C@H]1CCCCCc1c(nc3ccccc3c1OC1CCN(CC)CC1)O2)C(=O)NS(=O)(=O)C1(C)CC1", "pIC50": 9.68}
{"Compound": "C=C[C@@H]1C[C@]1(NC(=O)[C@@H]1C[C@@H]2CN1C(=O)[C@H](C1CCCCC1)NC(=O)O[C@@H]1C[C@H]1CCCCCc1c(nc3ccccc3c1OC1CCN(CCOC)CC1)O2)C(=O)NS(=O)(=O)C1(C)CC1", "pIC50": 9.82}
{"Compound": "C=C[C@@H]1C[C@]1(NC(=O)[C@@H]1C[C@@H]2CN1C(=O)[C@H](C1CCCCC1)NC(=O)O[C@@H]1C[C@H]1CCCCCc1c(nc3ccccc3c1O[C@H]1C[C@H]3CC[C@@H](C1)N3CCOC)O2)C(=O)NS(=O)(=O)C1(C)CC1", "pIC50": 9.72}
{"Compound": "C=C[C@@H]1C[C@]1(NC(=O)[C@@H]1C[C@@H]2CN1C(=O)[C@H](C1CCCCC1)NC(=O)O[C@@H]1C[C@H]1CCCCCc1c(nc3ccccc3c1OC1CCN(CC(F)(F)F)CC1)O2)C(=O)NS(=O)(=O)C1(C)CC1", "pIC50": 7.89}

Please find the next compound below.
IN: Look at this compound and give its reported pIC50. C=C[C@@H]1C[C@]1(NC(=O)[C@@H]1C[C@@H]2CN1C(=O)[C@H](C1CCCCC1)NC(=O)O[C@@H]1C[C@H]1CCCCCc1c(nc3ccccc3c1O[C@H]1C[C@H]3CC[C@@H](C1)N3)O2)C(=O)NS(=O)(=O)C1(C)CC1
OUT: 10.30
